target-system: DRB1*0901 (DR9) (Homo sapiens, UniProt P01903+P01911, A100R/A103E/D57H/D86V/F55Y/F60I/F76Y/I96F/K127E/L162R/M171V/P40D/Q125H/Q99R/R33Q/R42F/S133A/S66N/T210M/V115G/W38K/Y107V/Y59G/Y89S)
Construct: Epstein-Barr virus (EBV) transformed homozygous cell lines were used as sources; endogenous in cells
assay-details: biochemical
Assay type: binding
study-conditions: Binding Capacity (IC 50% nM) Other Alleles DR9
Catalogue of IC50 readings, one per entry.

molecule: CC(C)[C@H](NC(=O)[C@H](Cc1ccccc1)NC(=O)[C@H](CCCCN)NC(=O)[C@H](Cc1ccc(O)cc1)NC(=O)[C@H](C)N)C(=O)N[C@H](C(=O)N1CCC[C@H]1C(=O)NCC(=O)N[C@@H](C)C(=O)N[C@@H](C)C(=O)N[C@H](C(=O)N1CCC[C@H]1C(=O)N[C@@H](Cc1ccc(O)cc1)C(=O)N[C@@H](C)C(=O)NCC(=O)O)[C@@H](C)O)C(C)C [Peptide 27.412]
IC50: < 1000 nM
--
molecule: CC(C)[C@H](NC(=O)[C@H](Cc1ccccc1)NC(=O)[C@@H](N)CCCCN)C(=O)N[C@H](C(=O)N1CCC[C@H]1C(=O)NCC(=O)N[C@@H](C)C(=O)N[C@@H](C)C(=O)N[C@H](C(=O)N1CCC[C@H]1C(=O)N[C@@H](Cc1ccc(O)cc1)C(=O)N[C@@H](C)C(=O)NCC(=O)N[C@@H](CCC(=O)O)C(=O)N1CCC[C@H]1C(=O)O)[C@@H](C)O)C(C)C [Peptide F107.17]
IC50: < 1000 nM

* * *

Catalogue of IC50 readings, one per entry.
target-system: DRB1*0301 (DR3w17) (Homo sapiens, UniProt P01903+P01911, A100K/A102G/A103R/A169T/F55Y/I96L/K41T/L162R/M171V/P40S/Q125H/Q178H/Q39Y/R42S/S66N/T106N/T262R/W38E/Y61H)
assay-details: biochemical
study-conditions: Binding Capacity (IC50% nM) DR3
measure-name: IC50

molecule: CC[C@H](C)[C@H](NC(=O)[C@H](C)NC(=O)[C@H](CC(C)C)NC(=O)[C@H](CCCCN)NC(=O)[C@H](CCCNC(=N)N)NC(=O)[C@@H](N)CCSC)C(=O)N[C@@H](CC(C)C)C(=O)N[C@@H](CO)C(=O)N[C@H](C(=O)N[C@@H](CO)C(=O)N[C@@H](CO)C(=O)N[C@@H](Cc1ccccc1)C(=O)N[C@@H](CC(C)C)C(=O)N[C@@H](Cc1ccccc1)C(=O)N[C@H](C(=O)O)C(C)C)C(C)C [Peptide 27.388]
result: > 10000 nM

molecule: CC(C)C[C@H](NC(=O)CN)C(=O)N[C@@H](C)C(=O)N[C@@H](Cc1ccc(O)cc1)C(=O)N[C@@H](CCCCN)C(=O)N[C@@H](Cc1ccccc1)C(=O)N[C@H](C(=O)N[C@H](C(=O)N1CCC[C@H]1C(=O)NCC(=O)N[C@@H](C)C(=O)N[C@@H](C)C(=O)N[C@H](C(=O)N1CCC[C@H]1C(=O)N[C@@H](Cc1ccc(O)cc1)C(=O)O)[C@@H](C)O)C(C)C)C(C)C [Peptide 1188.32]
result: > 10000 nM

molecule: CC(C)C[C@H](NC(=O)CNC(=O)[C@H](C)NC(=O)[C@H](CC(C)C)NC(=O)[C@@H](NC(=O)[C@H](CO)NC(=O)[C@@H](NC(=O)[C@H](C)NC(=O)[C@H](CC(C)C)NC(=O)[C@H](CCCCN)NC(=O)[C@H](Cc1ccc(O)cc1)NC(=O)[C@@H](N)CCCCN)[C@@H](C)O)C(C)C)C(=O)N[C@@H](CC(C)C)C(=O)NCC(=O)N[C@@H](CC(N)=O)C(=O)O [Peptide F107.09]
result: > 10000 nM

* * *

target-system: DRB1*1201 (DR5w12) (Homo sapiens, UniProt P01903+P01911, A100R/A169T/D57E/D86V/F55L/H45Y/K41T/L162R/M171V/P40S/Q125H/Q178H/Q39Y/Q99D/R42G/S66L/T262R/V114A/V67L/W38E/Y59H/Y61H/Y89S)
Construct: Epstein-Barr virus (EBV) transformed homozygous cell lines were used as sources; endogenous in cells; host or cells: Herluf (EBV-transformed homozygous B cell line)
assay-details: biochemical
Assay type: binding
study-conditions: Binding Capacity (IC50% nM) DR5w12
Catalogue of IC50 readings, one per entry.

compound: CSCC[C@H](NC(=O)[C@H](C)NC(=O)[C@H](CC(C)C)NC(=O)[C@@H]1CCCN1C(=O)[C@@H](NC(=O)[C@H](C)NC(=O)[C@H](Cc1c[nH]cn1)NC(=O)[C@H](CC(N)=O)NC(=O)[C@@H](NC(=O)[C@H](Cc1c[nH]c2ccccc12)NC(=O)[C@H](CC(N)=O)NC(=O)[C@H](Cc1c[nH]cn1)NC(=O)[C@@H](N)CCCNC(=N)N)C(C)C)C(C)C)C(=O)N[C@@H](CCCCN)C(=O)N[C@@H](CC(C)C)C(=O)O [Peptide 1188.45]
IC50: > 10000 nM
//
compound: CC[C@H](C)[C@H](NC(=O)[C@H](CC(=O)O)NC(=O)[C@H](CC(C)C)NC(=O)[C@@H](NC(=O)CNC(=O)[C@@H](NC(=O)[C@@H](NC(=O)[C@@H](NC(=O)[C@@H](NC(=O)[C@H](C)NC(=O)[C@H](CC(C)C)NC(=O)[C@@H](NC(=O)[C@H](CC(N)=O)NC(=O)[C@H](CO)NC(=O)[C@H](CC(C)C)NC(=O)[C@@H](N)CC(N)=O)C(C)C)[C@@H](C)O)[C@@H](C)CC)[C@@H](C)O)[C@@H](C)O)C(C)C)C(=O)O [Peptide 1136.24]
IC50: > 10000 nM
//
compound: CC[C@H](C)[C@H](NC(=O)[C@H](CO)NC(=O)[C@H](CO)NC(=O)[C@H](CC(N)=O)NC(=O)[C@@H](NC(=O)[C@@H](NC(=O)[C@H](CC(N)=O)NC(=O)[C@H](Cc1ccccc1)NC(=O)[C@@H](N)C(C)C)C(C)C)C(C)C)C(=O)NCC(=O)N[C@@H](CC(C)C)C(=O)N[C@H](C(=O)N[C@@H](CCSC)C(=O)N[C@H](C(=O)N[C@@H](CC(C)C)C(=O)O)C(C)C)[C@@H](C)CC [Peptide F107.23]
IC50: > 10000 nM

* * *

Catalogue of IC50 readings, one per entry.
target-system: DRB5*0101 (DR2w2a) (Homo sapiens, UniProt P01903+Q30154)
Construct: Epstein-Barr virus (EBV) transformed homozygous cell lines were used as sources; endogenous in cells; host or cells: GM3107 (EBV-transformed homozygous B cell line)
assay-details: biochemical
Type: binding
study-conditions: Binding Capacity (IC 50% nM) Other Alleles DR2w2a
No end group written: not given here.

residue-string: GPPTALRSFGFAFGYM [Peptide 1136.29]
target-system: DRB5*0101 (DR2w2a) (Homo sapiens, UniProt P01903+Q30154)
IC50: < 1000 nM
--
residue-string: LFHYYFLSEKAPGSTV [Peptide 1136.04]
target-system: DRB5*0101 (DR2w2a) (Homo sapiens, UniProt P01903+Q30154)
IC50: < 1000 nM
--
residue-string: RVYQEPQVSPPQRAET [Peptide 1136.59.01a]
target-system: DRB5*0101 (DR2w2a) (Homo sapiens, UniProt P01903+Q30154)
IC50: < 1000 nM

* * *

Catalogue of IC50 readings, one per entry.
target-system: DRB1*1201 (DR5w12) (Homo sapiens, UniProt P01903+P01911, A100R/A169T/D57E/D86V/F55L/H45Y/K41T/L162R/M171V/P40S/Q125H/Q178H/Q39Y/Q99D/R42G/S66L/T262R/V114A/V67L/W38E/Y59H/Y61H/Y89S)
Construct: Epstein-Barr virus (EBV) transformed homozygous cell lines were used as sources; endogenous in cells; host or cells: Herluf (EBV-transformed homozygous B cell line)
assay-details: biochemical
Format: binding
study-conditions: Binding Capacity (IC50% nM) DR5w12
measure-name: IC50

molecule: CC[C@H](C)[C@H](NC(=O)[C@H](Cc1ccccc1)NC(=O)[C@H](Cc1ccccc1)NC(=O)[C@H](CO)NC(=O)[C@H](C)NC(=O)[C@@H]1CCCN1C(=O)[C@H](Cc1ccccc1)NC(=O)[C@@H](NC(=O)[C@@H](N)C(C)C)C(C)C)C(=O)N[C@@H](CCCCN)C(=O)N[C@@H](CC(C)C)C(=O)N1CCC[C@H]1C(=O)N[C@H](C(=O)N[C@H](C(=O)N[C@@H](CC(C)C)C(=O)N[C@@H](C)C(=O)O)[C@@H](C)CC)[C@@H](C)CC [Peptide 1136.11]
result: > 10000 nM
//
molecule: CC(C)C[C@H](NC(=O)CNC(=O)[C@H](C)NC(=O)[C@H](CC(C)C)NC(=O)[C@@H](NC(=O)[C@H](CO)NC(=O)[C@@H](NC(=O)[C@H](C)NC(=O)[C@H](CC(C)C)NC(=O)[C@H](CCCCN)NC(=O)[C@H](Cc1ccc(O)cc1)NC(=O)[C@@H](N)CCCCN)[C@@H](C)O)C(C)C)C(=O)N[C@@H](CC(C)C)C(=O)NCC(=O)N[C@@H](CC(N)=O)C(=O)O [Peptide F107.09]
result: > 10000 nM
